Test system: PIK3C2B;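 also: KINOMEscan kinase panel screen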
Details: concentration: 1 μM, replicates: in singlicate; n = 1
Readout Name: %Inh (%)
Give the value in % but do not write % after it.

Query: Find the recorded %Inh belonging to O=c1cc(N2CCOCC2)nc2n(Cc3cccc4ccccc34)ccn12 [GSK2333389] and report it.
Reply: 0

Query: # repeat for C[C@@H](Oc1cc(-n2cnc3ccc(NC(=O)NC(C)(C)C)cc32)sc1C(N)=O)c1ccccc1Cl [GSK346294]
Reply: 0

Query: Now this one: Cc1cn2c(=O)cc(N3CCOCC3)nc2n1Cc1cccc(Cl)c1Cl [GSK2334006]
Reply: 36

Query: Follow-up item: `CCc1nc(-c2cccc(C)c2)c(-c2ccnc(NCc3ccccc3)c2)s1`
Reply: 0

Query: And then NCC(NC(=O)c1cc(-c2cn[nH]c2)c(-c2ccnc3[nH]ccc23)s1)c1ccccc1.O=C(O)C(F)(F)F.O=C(O)C(F)(F)F (stereo not shown) [GSK1325775] , what is it?
Reply: 0

Query: What do we get for Fc1ccc(-c2ncn(CCCN3CCOCC3)c2-c2ccccn2)cc1 [SB-211742] ?
Reply: 0

Query: Check Cl.Cl.Cl.Fc1ccc(-c2ncn(C3CCNCC3)c2-c2ccnc(Nc3ccccc3)n2)cc1 [SB-238039] too.
Reply: 0

Query: Now consider Fc1ccc(-c2ncn(CCCN3CCOCC3)c2-c2cccnc2)cc1 [SB-211743] .
Reply: 0

Query: Let us now turn to O=c1cc(N2CCOCC2)nc2n(Cc3cccc(Cl)c3Cl)c(C3CC3)nn12 [GSK2358994]
Reply: 70

Query: Next record, please: Nc1nccc(-c2c(-c3ccc(F)cc3)ncn2C2CCN(CC(F)(F)F)CC2)n1 [SB-236560]
Reply: 5

Query: Could you do the same for NS(=O)(=O)CCc1cccc(Nc2nccc(-c3c(-c4cccc(NC(=O)c5c(F)cccc5F)c4)nn4ccccc34)n2)c1 [GSK336735] , please?
Reply: 0

Query: What about `COc1cc2c(cc1OCCN1CCN(C)CC1)ncc1c3ccc(C#N)cc3[nH]c21` ?
Reply: 0

Query: Likewise for `O=C(NOCC1CC1)c1ccc(F)c(F)c1Nc1ccc(I)cc1Cl` ?
Reply: 0

Query: What about CN(C(=O)c1ccc(-c2cc(-c3c[nH]nc3-c3ccccn3)ccn2)cc1)C1CCOCC1 [GW810083] ?
Reply: 0

Query: Moving on to O=C(Nc1n[nH]c2cc(-c3cccc(F)c3)ccc12)C1CC1 [SB-735464]
Reply: 19

Query: Same again, this time with COc1ccc(Nc2ncc(C#N)c(Nc3ccccc3C(N)=O)n2)cc1N1CCN(C)CC1.Cl [GSK1558669]
Reply: 0

Query: Same question for O=C(NCCNc1ccnc(Nc2ccc(F)cc2)n1)c1cc2ccccc2s1 [GSK1379874] please.
Reply: 0

Query: Subsequent entry: `Cc1cccc(-c2nc(-c3ccc(S(C)(=O)=O)cc3)sc2-c2ccncc2)c1`
Reply: 0

Query: Quick one: COc1cc2ncn(-c3cc(OCc4sccc4Cl)c(C(N)=O)s3)c2cc1OC [GSK448459]
Reply: 15

Query: Next: CC(C)(CN)c1nc(-c2ccc(Cl)c(O)c2)c(-c2ccncc2)[nH]1.O=C(O)C(F)(F)F [SB-477794]
Reply: 0

Query: Can you check Cc1nnc(-c2ccc3occ(-c4ccc(C(C)O)cc4)c3c2)o1 (stereo not shown) next?
Reply: 18

Query: Same read-out for `CCc1ccnc(/C=C/c2n[nH]c3cc(Sc4ccccc4C(=O)NC)ccc23)c1` ?
Reply: 0

Query: Next: `N#Cc1c(N2CCOCC2)sc(-c2ccn[nH]2)c1-c1ccc(Cl)cc1`
Reply: 31

Query: Do the same for Cn1cc(-c2ccc3c(c2)CCN3C(=O)Cc2ccccc2Cl)c2c(N)ncnc21 [GSK2608885] please
Reply: 0

Query: Next: O=C(NCCNc1ccnc(Nc2ccc(F)cc2)n1)Nc1ccccc1F [GSK1379880]
Reply: 0

Query: Try Cc1nnc(-c2ccc3ncc(-c4ccc(S(C)=O)cc4)n3c2)o1 (stereo not shown) next.
Reply: 13

Query: And the next one, CN(C1=C(c2ccccc2)C(=O)NC1=O)c1ccccc1 [SB-334860] ?
Reply: 0

Query: Please do the same for CCCCCc1nc2c(N)ncnc2n1CCCCC [SKF-97255] as well.
Reply: 0

Query: Another compound: c1ccc(-c2cc(-c3c[nH]nc3-c3ccccn3)ccn2)cc1 [GW576604]
Reply: 0

Query: Record: Cl.Oc1cccc(Nc2ccnc3cc(-c4ccncc4)ccc23)c1 [GW494601]
Reply: 13

Query: Request: COc1ccc(COc2cc(-n3cnc4ccccc43)sc2C(N)=O)cc1 [GSK1024304]
Reply: 0

Query: Follow-up entry: `CSc1ccc(-c2cc3ncnc(SCC(=O)O)c3s2)cc1`
Reply: 0

Query: And the next one, COc1cc(Nc2nccc(N3CCC(NC(=O)c4cccc(NC(C)=O)c4)C3)n2)cc(OC)c1OC (stereo not shown) [GSK1379754] ?
Reply: 100

Query: Follow-up entry: `CN1c2ccc(CNc3ccc(F)cc3)cc2-c2c(cnn2C)S1(=O)=O`
Reply: 19

Query: Now try [2H]C([2H])(c1cccc(C(F)(F)F)c1C)n1ccn2c(=O)nc(N3CCOCC3)cc12 [GSK2336394] .
Reply: 0

Query: Similarly, `CN1c2ccc(NCc3ccc(F)cc3)cc2-c2c(cnn2C)S1(=O)=O` ?
Reply: 0

Query: Also check Cc1cccc(-c2nc(Nc3ccc4ncsc4c3)c3ccccc3n2)n1 [GW867588]
Reply: 0
